Assay: wild-type E. coli BW25113 antibacterial activity – OD615, dose response (AID 638)
Settings: at 100 µM (top of the series) unless noted
Hit rate of the full screen: of about 1,300 compounds, about 65 (5%) were called active. These entries were drawn from the full list. Entries with a potency or affinity are not part of this list.
Entries and their growth inhibition values follow.
OBSERVATION_TYPE: growth inhibition (%)

{"COMPOUND": "O=C1CC(c2ccco2)CC2=C1C1c3ccccc3C(=O)N1c1ccccc1N2 (stereo unspecified)", "QUANTITATIVE_READOUT": -3.27}
{"COMPOUND": "CCc1nc(N2CCCCC2)c2oc3ccccc3c2n1", "QUANTITATIVE_READOUT": -1.03}
{"COMPOUND": "CC(C)COC(=O)NCCOC(=O)Nc1cccc(Cl)c1", "QUANTITATIVE_READOUT": 18.9}
{"COMPOUND": "CC1CCC(C(C)C)C(OC(=O)COC(=O)c2ccc(=O)[nH]c2)C1 (stereo unspecified)", "QUANTITATIVE_READOUT": 1.53}
{"COMPOUND": "CCc1nnc(NC(=O)c2cccc(C(=O)Nc3nnc(CC)s3)n2)s1", "QUANTITATIVE_READOUT": 9.58}
{"COMPOUND": "Cc1ccc(-c2csc3ncnc(Sc4nnc(CN5CCCCCC5=O)o4)c23)cc1", "QUANTITATIVE_READOUT": 5.4}
{"COMPOUND": "COc1ccc(S(=O)(=O)Nc2ccc(S(=O)(=O)N3CCCCC3)cc2)cc1", "QUANTITATIVE_READOUT": -5.18}
{"COMPOUND": "CCSc1nnc(NC(=O)c2nc(-c3ccccc3)n(-c3ccccc3)n2)s1", "QUANTITATIVE_READOUT": -4.83}
{"COMPOUND": "CCn1c(C(=O)N2CCC(Cc3ccccc3)CC2)cc2sccc21", "QUANTITATIVE_READOUT": -18.6}
{"COMPOUND": "CCCc1cc(C(=O)Nc2cccc(Cl)c2)no1", "QUANTITATIVE_READOUT": 12.5}
{"COMPOUND": "COC(=O)c1c(NC(=O)CCc2ccc(C)o2)sc(C)c1C", "QUANTITATIVE_READOUT": 3.59}
